Target: T1, Recombinant human CXCL16 (rhCXCL16) protein (human, UniProt Q9H2A7 30-118, limits assumed)
T1 construct: Bought recombinant protein (976-CX, R&D systems); also called CXCL16 antigen; 976-CX (R&D systems)
T1 sequence: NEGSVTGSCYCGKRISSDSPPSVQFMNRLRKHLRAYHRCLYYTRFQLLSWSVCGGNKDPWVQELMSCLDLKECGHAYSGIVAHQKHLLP
Experiment: BLI (ForteBio), antibody captured on biosensor, rhCXCL16 in solution, 25 C
What Kd was measured for each of the following?

Chimeric antibody HC0LC0 (antibody, V domains shown, also called CLS-A1HC0LC0; variant antibody) VH: AVQLVESGGGLVQPKESLKISCAASGFTFSNAVMNWVRQAPGKGLEWVARIRTKPNNYATFYADSVKGRFTFSRDDSKSMVYLQMDNLKTEDTAMYYCTAWTTEGIYWGQGTLVTVSS VL: DIVMTQSPSSLAVSAGETVTINCKSSQSLLYSGNQKNYLAWYQQKPGQSPKLLIYWASTRQSGVPDRFIGSGSGTDFTLTISSVQAEDLAIYYCQQYYDTPWTFGGGTKLELKR :: < 1 pM

Consider now this further binder.
Fill in: Kd of HC5LC5 (antibody, human IgG1, kappa, V domains shown, Humanized; human IgG1 / kappa constant domains; also called HCSLCS; humanized CXCL16 antibody HC5LC5) VH: EVQLVESGGGLVQPGGSLKLSCAASGFTFSNAVMNWVRQASGKGLEWVARIRTKPNNYATFYADSVKGRFTFSRDDSKNTAYLQMNSLKTEDTAMYYCTAWTTEGIYWGQGTLVTVSS VL: DIVMTQSPSSLAVSAGERATINCKSSQSLLYSGNQKNYLAWYQQKPGQSPKLLIYWASTRQSGVPDRFIGSGSGTDFTLTISSLQAEDVAIYYCQQYYDTPWTFGGGTKLELKR is ___
< 1 pM
